Reference for the values: patent US20120328625A1

Target: T1, full length human Shh expressed on the cell surface (human, UniProt Q15465 24-462)
T1 construct: whole, on cells; also called native human Shh; Shh-FL
Experiment: FMAT, hybridoma supernatant on 293T cells transiently expressing human Shh
We begin with a simple list: items and their reported FL1 X COUNT.
Recorded Endpoint: FL1 X COUNT

[[record]]
binder = "1G12 (antibody, V domains shown, fully human XenoMouse hybridoma antibody; tested as hybridoma supernatant and as purified antibody; also called MAb 1G12) VH: QVQLVESGGGVVQPGRSLRLSCAASGFTFSTYGMHWVRQAPGKGLEWVAVIWYDGSNKYYADSVNGRFTISRDNSKNTLYLQMNSLRGEDTAVYYCARDLYYYGSGSPFDYWGQGTLVTVSS VL: EIVMTQSPATLSVSPGERVTLSCRASQSVSSNLAWYQQKPGQAPRLLIYGVSIRATGIPARFSGSGSGTEFTLTISSLQSEDFAVYYCQQYDNWPRPGFGGGTKVEIK"
measured_value = 327000

[[record]]
binder = "6D7 (antibody, V domains shown, fully human XenoMouse hybridoma antibody; also called MAb 6D7) VH: QVQLQESGPGLVKPSQTLSLTCTVSGGSINSGGFYWSWIRQHPGKNLEWIGSIYYSGNTYYNPSLKSRVTISVDTSKNQFSLKLTSVTAADTAVYYCARGNDSGDYDWYFDLWGRGTLVTVSS VL: SYELTQPPSVSVSPGQTASITCSGEKLGYKYVCWYQQKPGQSPVLVIFHDNKRPSGIPERFSGSNSGNTATLTISGAQAMDEADYYCQAGDSSAVFGGGTKLTVL"
measured_value = 661000

[[record]]
binder = "4B6 (antibody, V domains shown, fully human XenoMouse hybridoma antibody; tested as hybridoma supernatant and as purified antibody; also called MAb 4B6) VH: QVQLVESGGGVVQPGRSLRLSCAASGFTFSTYGMHWVRQAPGKGLEWVAVIWYDGSNEYYADSVKGRFTISRDNSKNTLYLQMNSLRAEDTAVYYCARDLYYYGSGSPFDYWGQGTLVTVSS VL: EIVMTQSPATLSVSPGERATLSCRASQSVSSNLAWYQQKPGQAPRLLIFGISIRATGIPARFSGSGSGTEFTLTISSLQSEDFAVYYCQQYNDWPRPGFGGGTRVEIK"
measured_value = 625000

[[record]]
binder = "1C8 (antibody, V domains shown, fully human XenoMouse hybridoma antibody; tested as hybridoma supernatant and as purified antibody; also called MAb 1C8) VH: EVQLVESGGGLIQPGGSLRLSCAVSGFTVSSNCMNWVRQAPGKGLEWVSVIYSGGKTAYADSVKGRFTISRDNSKNTLCLQMNSLRAEDTAVYYCARDSSMVVGLGYFDLWGRGTLVTVSS VL: SYELTQPPSVSVSPGLTASITCSGDKLGYKYASWYQQKPGQSPVLVIYQDIKRPSGIPERFSGSNSGNTATLTISGTQAMDEADYYCQAWDSSTVVFGGGTKLTVL"
measured_value = 319000

[[record]]
binder = "1A12 (antibody, V domains shown, fully human XenoMouse hybridoma antibody; tested as hybridoma supernatant and as purified antibody; also called MAb 1A12) VH: QVYLVESGGGVVQPGRSLRLSCAASGFTFSSYGMHWVRQAPGKGLEWVAVIWYDGSNEYYADSVKGRFTISRDNSKNTLYLQMNSLRAEDTAVYYCARDLYYYGSGSPFDYWGQGTLVTVSS VL: EIVMTQSPATLSVSPGERATLSCRASQSVSSNLAWYQQKPGQAPRLLIFGVSIRATGIPARFSGSGSGTEFTLTISSLQSEDFAVYYCQQYNDWPRPGFGGGTKVEIK"
measured_value = 696000

[[record]]
binder = "1H10 (antibody, V domains shown, fully human XenoMouse hybridoma antibody; tested as hybridoma supernatant and as purified antibody; also called MAb 1H10) VH: QVQLVESGGGVVQPGRSLRLSCAASGFTFSSYGMHWVRQAPGKGLEWVAVIWNDGSNEYYADSVKGRFTISRDNSKNTLYLQMNSLRAEDTAVYYCARDLYYYGSGSPFDDWGQGTLVTVSS VL: EIVMTQSPGTLSVSPGERATLSCRASQSVGSNLAWYQQKPGQAPRLLIFGVSIRATGVPARFSGSGSGTEFTLTISSLQSEDFAVYYCQQYNDWPRPGFGGGTKVEIK"
measured_value = 370000

[[record]]
binder = "3H8 (antibody, V domains shown, fully human XenoMouse hybridoma antibody; also called MAb 3H8) VH: QVQLVESGGGVVQPGRSLRLSCAASGFTFSTYGMHWVRQAPGKGLEWVAVIWYDGSNKYYADSVKGRFTISRDNSKNTLNLQMNSLRAEDTAVYYCARDLYYYGSGSPFDYWGQGTLVTVSS VL: EIVMTQSPATLSVSPGERATLSCRASQSVSSNLAWYQQKPGQAPRLLIFGVSIRATGIPARFSGSGSGTEFTLTISSLQSEDFAVYYCQQYNNWPRPGFGGGTKVEIK"
measured_value = 497000

